METHOD_DESCRIPTION: Intrinsic clearance in human liver microsomes
Type: ADME, Microsome
Quick reference for microsomal CLint among some compounds

CPD_SMILES: Cc1cc(=O)n(CCCOc2ccccc2Cl)c(N2CCNCC2)n1
SIGN_QUALIFIER: =
microsomal CLint / µL/min/mg: 27
//
CPD_SMILES: C[C@@H]1CNCCN1c1cc(=O)n(C)c(CCc2ccccc2C(F)(F)F)n1
SIGN_QUALIFIER: =
microsomal CLint / µL/min/mg: 29
//
CPD_SMILES: Cc1ccc(F)cc1OCc1nc(N2CCNCC2)cc(=O)n1C
SIGN_QUALIFIER: <
microsomal CLint / µL/min/mg: 7
